Test system: TK-10 renal
PROTOCOL DETAILS: NCI-60 one-dose screen, 48 h (100 = growth as untreated, 0 = no growth, -100 = all killed)
CONDITION DESCRIPTION: 10 µM unless noted
Compounds without any hit were thinned out: in the full panel of roughly 83,000, 20% have a hit. Active and inactive are the calls of the source. The calls were made as follows: active = growth percent below 10; inactive = the rest.
MEASURED ENDPOINT: growth

CCCCCCCCn1ccc2cc(NC(=O)Cn3cc(CN4CCC(C)CC4)nn3)ccc21 | 80.7% (inactive)
COc1cc(C2=NN(C(C)=O)C(c3ccc(N(C)C)cc3)C2)cc(OC)c1OC (centres undefined) | 109% (inactive)

Task: Look up growth of Nc1n[nH]c2ccc([C@@H]3Nc4cc5[nH]ncc5cc4[C@H]4C5CCC(C5)[C@@H]34)cc12 (some centres undefined) and report it.
Result: 62.4% (inactive)

Task: Look up growth of CC1(C)CC[C@]2(C(=O)O)CC[C@]3(C)C(=CC[C@@H]4[C@@]5(C)C[C@@H](Cc6cn([C@@H]7O[C@H](CO)[C@@H](O)[C@H](O)[C@H]7O)nn6)[C@H](O)C(C)(C)[C@@H]5CC[C@]43C)[C@@H]2C1 and report it.
Result: 93.6% (inactive)

---

Test system: PC-3 prostate
PROTOCOL DETAILS: NCI-60 one-dose screen, 48 h
CONDITION DESCRIPTION: 10 µM unless noted
Compounds without any hit were thinned out: in the full panel of roughly 83,000, 20% have a hit. Activity calls are given as the source filed them. Rule for the calls: active = growth percent below 10; inactive = the rest.
Tick one outcome: yes (1) for active, no (0) for inactive

Consider the following illustrative entries.
CCN(CC)CCOc1ccc(Nc2ncc3cc(-c4ccc(O)cc4)c(=O)n(C)c3n2)cc1 | yes (1)
Cc1ccc(C)c(-n2c(-c3ccc(Br)cc3)csc2=NC(=O)c2ccccc2F)c1 | no (0)
O=c1[nH]cnc2c1C(c1ccc(Br)cc1)c1sc3c(F)cccc3c1O2 (stereo not given) | no (0)
O=S(=O)(c1ccccc1)N1CCCN(c2nc(-c3ccccc3)nc3nc(-c4ccccc4)oc23)CC1 | no (0)
COc1ccc(C(C)=O)cc1S(N)(=O)=O | no (0)
COc1ccc(C(c2cc(OC)c(OC)c(OC)c2)N2CCN(Cc3ccccc3)CC2)cc1 (stereo not given) | no (0)
Cc1[nH]c(C(=O)Nc2ccc(C(N)=O)cc2NC(C)C)c(Cl)c1Cl | no (0)
COc1ccc(/C(C)=C(\c2ccc(OCCN3CCCCCC3)cc2)c2ccc(OC(=O)c3ccccc3)cc2)cc1 | no (0)

Task: Which result was noted for this molecule in the test: COc1ccc(C(c2cc(OC)c(OC)c(OC)c2)N2CCCC2)cc1 (stereo not given)
Result: no (0)

Task: Which result was noted for this molecule in the test: COc1cc2oc(-c3cccc(NC(=O)c4ccc5c(c4)OCO5)c3)cc(=O)c2c(OC)c1OC
Result: yes (1)

---

System: RXF 393 renal
PROTOCOL DETAILS: NCI-60 one-dose screen, 48 h (100 = growth as untreated, 0 = no growth, -100 = all killed)
CONDITION DESCRIPTION: 10 µM unless noted
The panel holds about 83,000 compounds, 20% with a hit somewhere; the sample as a whole holds those more often.
Returns one of MET or NOT MET; MET when growth is >= 90%.

Consider the following illustrative entries.
COc1ccc2[nH]cc(-c3nc(-c4cn(C)c5ccncc45)cs3)c2c1 | NOT MET
COc1ccc(C2=CN3CC=CCC3CC2=O)cc1 (stereo not given) | MET
COCC[C@H]1CCC/C=C/[C@@H]2C[C@H](O)C[C@H]2[C@H](O)/C=C/C(=O)O1 | NOT MET

Task: In plain terms: is recorded growth at least 90% for O=C(CCCCCCN1CC(=O)N2[C@@H](C3CCCCC3)c3[nH]c4ccccc4c3C[C@H]2C1=O)NO ?
Result: NOT MET

---

Overview of recorded growth for various compounds
Tested on: HCT-15 colon
PROTOCOL DETAILS: NCI-60 one-dose screen, 48 h (100 = growth as untreated, 0 = no growth, -100 = all killed)
CONDITION DESCRIPTION: 10 µM unless noted
Method: Growth inhibition of the HCT-15 human tumor cell line is measured as a screen for anti-cancer activity. Cells are grown in 96 well plates and exposed to the test compound for 48 hours. Compounds are tested at a single concentration, which is 10^-5 M for most compounds. The reported endpoint is percent growth (GI% or GIPRCNT), where numbers from 0 - 100% represent growth inhibition, and numbers from -100% - 0 represent cell death. For example, a value of 40 represents 60% growth inhibition. […]
The panel holds about 83,000 compounds, 20% with a hit somewhere; the sample as a whole holds those more often.
Respond with the bare value in %.

Cc1ccc(-c2nc(C(Cl)Cl)nc3cc(C)nn23)cc1 | -2.36

Task: Look up growth of COc1ccc2c(c1)c(-c1ccc(-c3cn(C)c4ccc(OC)cc34)[nH]1)cn2C and report it.
Result: 4.19

Task: Look up growth of CCOC(=O)c1c(-c2ccccc2)n2c(=O)cc(C)c3c(O)c(O)cc1c32 and report it.
Result: 28.8

Task: Look up growth of N#Cc1c(-c2ccccc2)cc(-c2ccccc2)n(CCCC(=O)NO)c1=O and report it.
Result: 19.1

Task: Look up growth of COP(=O)(OC)c1nnn(-c2cccc([N+](=O)[O-])c2)c1C and report it.
Result: 106

Task: Look up growth of COc1cc(/C=C2\CN(S(=O)(=O)c3ccc(C)cc3)C/C(=C\c3cc(CN4CCCCC4)c(O)c(OC)c3)C2=O)cc(CN2CCCCC2)c1O and report it.
Result: -86.1

Task: Look up growth of CCN1C(=O)N(CC)C2C1NN=c1s/c(=C\c3cc4ccccc4[nH]3)c(=O)n12 (stereo not given) and report it.
Result: 12

---

Tested on: UO-31 renal
PROTOCOL DETAILS: NCI-60 one-dose screen, 48 h
CONDITION DESCRIPTION: 10 µM unless noted
This is part of a sample that, as a whole, favours compounds with a hit. Of some 83,000 tested, about 20% had one in any assay. Calls of active or inactive are those of the source. Rule for the calls: active = growth percent below 10; inactive = the rest.
Tick one outcome: TRUE for active, FALSE for inactive

Consider the following illustrative entries.
NC(CSC(c1ccccc1)(c1ccccc1)c1ccc2c(c1)OCO2)C(=O)O (stereo not drawn) | FALSE
O=C(O)c1cn(C2CC2)c2cc(N3CCN(C(=O)N/N=C/c4ccccc4)CC3)c(F)cc2c1=O | FALSE

Task: Which result was noted for this compound in the test: Fc1ccc2c(c1)c(-c1nc(-c3c[nH]c4ncccc34)cs1)cn2CCCN1CCOCC1
Result: FALSE

Task: Which result was noted for this compound in the test: C[C@@H]1O[C@@H](O[C@@H]2C[C@H](c3ccc4c(c3O)C(=O)C3=C(C4=O)[C@@]4(O)C(=O)C[C@](C)(O)C[C@@]4(O)C=C3)O[C@H](C)[C@H]2O)C[C@H](O)[C@@H]1O
Result: FALSE

Task: Which result was noted for this compound in the test: CCCCCCCCn1ccc2cc(NC(=O)Cn3cc(CN4CCCCCC4)nn3)ccc21
Result: TRUE

Task: Which result was noted for this compound in the test: COc1ccc(-c2oc(=O)ccc2-c2cc(OC)c(OC)c(OC)c2)cc1O
Result: FALSE

Task: Which result was noted for this compound in the test: O=C1Nc2ccccc2C2c3cccn3-c3ccccc3N12 (stereo not drawn)
Result: FALSE

Task: Which result was noted for this compound in the test: COc1ccc(-c2cc(-c3ccc(OC)cc3)nc(NCCCNc3ccnc4cc(Cl)ccc34)n2)cc1
Result: FALSE

---

Test system: SF-268 CNS
PROTOCOL DETAILS: NCI-60 one-dose screen, 48 h
CONDITION DESCRIPTION: 10 µM unless noted
This is part of a sample that, as a whole, favours compounds with a hit. Of some 83,000 tested, about 20% had one in any assay. Activity calls are given as the source filed them. The calls were made as follows: active = growth percent below 10; inactive = the rest.
Tick one outcome: class 1 for active, class 0 for inactive

Consider the following illustrative entries.
CCN(CC)c1ccc(/C=C\c2cc(C)c3cc(C)ccc3n2)cc1 | class 0
CN1CCN(c2ccc3c(c2)nc(NNC(=O)c2cnccn2)c2cccn23)CC1 | class 0
C=C1C(=O)O[C@H]2[C@H]1CC/C(COC(=O)c1cc3cc(F)ccc3[nH]1)=C\CC[C@@]1(C)O[C@@H]21 | class 1

Read the next record carefully.
Task: Which result was noted for this compound in the test: C[C@@H]1O[C@@H](O[C@@H]2C[C@H](c3ccc4c(c3O)C(=O)C3=C(C4=O)[C@@]4(O)C(=O)C[C@](C)(O)C[C@@]4(O)C=C3)O[C@H](C)[C@H]2O)C[C@H](O)[C@@H]1O
Result: class 0

---

Test system: SK-OV-3 ovarian
PROTOCOL DETAILS: NCI-60 one-dose screen, 48 h
CONDITION DESCRIPTION: 10 µM unless noted
This is part of a sample that, as a whole, favours compounds with a hit. Of some 83,000 tested, about 20% had one in any assay. Activity calls are given as the source filed them. Rule for the calls: active = growth percent below 10; inactive = the rest.
Tick one outcome: active, inactive

Consider the following illustrative entries.
NS(=O)(=O)c1ccc(N/C=C/C(=O)c2cc3ccccc3oc2=O)cc1 | inactive
Cc1ncc(C(=O)Nc2ccc(CN3CCN(C)CC3)c(C(F)(F)F)c2)cc1C#Cc1cnc(N)c2ccncc12 | active
COc1cc(/C=N/Nc2ccccc2F)cc(OC)c1OC | inactive
CCCCC(=O)Nc1ncc(Cc2ccccc2Cl)s1 | inactive

Task: Which result was noted for this compound in the test: Cc1ccccc1CNc1c2ccccc2nc2ccccc12
Result: inactive

Task: Which result was noted for this compound in the test: Cc1nc2sc(C(=O)Nc3ccc(Cl)cc3)c(N)c2cc1C(O)c1ccccc1 (configuration not stated)
Result: inactive

Task: Which result was noted for this compound in the test: CC(C)c1ccc(NC(=O)Nc2ccc(NC(=O)c3ccccc3N)cc2)cc1
Result: inactive

Task: Which result was noted for this compound in the test: C=CC(C)(O)CC/C=C(\CO)C(=O)OC1C(C)OC(O[C@](C)(C=C)CC/C=C(\CO)C(=O)O[C@H]2C[C@@]3(C(=O)OC4OC(CO)C(O)C(O)C4OC4OC(C)C(OC5OC(CO)C(O)C5O)C(OC5OC(CO)C(O)C(O)C5O)C4O)C(CC2(C)C)C2=CCC4[C@@]5(C)CC[C@H](OC6OC(COC7OC(C)C(O)C(O)C7OC7OCC(O)C(O)C7O)C(O)C(O)C6NC(C)=O)C(C)(C)C5CC[C@@]4(C)[C@]2(C)C[C@H]3O)C(O)C1O (some centres not stated)
Result: active
